Tested on: CCRF-CEM
Assay: In vitro inhibitory activity against replication of HIV type-1 virus in CEM cells
Type: functional, cell-based
Conditions: Homo sapiens
API: label(entry) gives 1 if the entry's IC50 is strictly smaller than 20 nM; on equality or larger values it gives 0.

// below: answered compounds
Problem: For the compound COc1ccc(S(=O)(=O)C[C@H](NS(C)(=O)=O)C(=O)N[C@@H](Cc2ccccc2)[C@H](O)Cc2ccccc2C(=O)NC(C)(C)C)cc1 , is IC50 under 20 nM?
0

Determine if CC(C)(C)NC(=O)c1ccccc1C[C@@H](O)[C@H](Cc1ccccc1)NC(=O)[C@H](C[S+]([O-])c1ccc2ccccc2c1)NS(C)(=O)=O (stereo partly specified) shows IC50 strictly lower than 20 nM.
1

Please determine if CC(C)(C)NC(=O)c1ccccc1C[C@@H](O)[C@H](Cc1ccccc1)NC(=O)[C@H](CS(=O)(=O)c1ccccc1)NS(C)(=O)=O is below 20 nM in terms of IC50.
0

Others:
Record CC(C)(C)NC(=O)c1ccccc1C[C@@H](O)[C@H](Cc1ccccc1)NC(=O)[C@H](CS(=O)(=O)c1ccc(Cl)cc1)NS(C)(=O)=O : is its IC50 strictly below 20 nM?
1

Hello, I'm reviewing records and need to know if IC50 of CC(C)(C)NC(=O)c1ccccc1C[C@@H](O)[C@H](Cc1ccccc1)NC(=O)[C@H](C[S+]([O-])c1cccc2ccccc12)NS(C)(=O)=O (stereo partly specified) is below 20 nM. Could you check?
1

hey, is IC50 for CC(C)(C)NC(=O)c1ccccc1C[C@@H](O)[C@H](Cc1ccccc1)NC(=O)[C@H](CS(=O)(=O)c1ccc2ccccc2n1)NS(C)(=O)=O lower than 20 nM or not?
1

Data origin, for the record: ChEMBL document CHEMBL1129303
